# Test method notes: inhibition of 3D7 malaria parasite growth – strain 3D7 (AID 2306)
# Condition label: P. falciparum 3D7 erythrocytic growth, LDH absorbance, 72 h; at 2 µM; active compounds read high
Respond with Y for growth inhibition values of 90% and above, N for values below.

Reference set, count: 6
Compound	Label
CCOC(=O)c1c(-c2ccccc2)c(C(=O)OCC)n2ccccc12	Y
CCOC(=O)C(NC(=O)Cc1ccccc1)C(C)C (stereo not given)	Y
COc1ccc2nc3cc(Cl)ccc3c(Nc3ccc(Oc4ccc(Nc5c6ccc(Cl)cc6nc6ccc(OC)cc56)cc4)cc3)c2c1	N
N#Cc1cc(C(=O)c2cc(Cl)ccc2O)cn(-c2cccc(C(F)(F)F)c2)c1=O	N
CCc1nc(N)nc(N)c1-c1ccc2c(c1)CCCC2	Y
CCOc1cc(C(C)C)ccc1C1CCN(CCCCNC(=O)c2ccc(NC(=O)c3ccc(Cl)cc3)cc2)CC1	Y

Could you tell me if the measured growth inhibition of Oc1cccc(Nc2ccnc3cc(-c4ccncc4)ccc23)c1 reaches 90% or more?
Y

Entry to check: COc1cccc2c(O)c(CNC3CCCCC3)ccc12
Y

Entry to check: CS(=O)(=O)Nc1ccc(-c2cnc3[nH]cc(-c4ccc(C(=O)O)cc4)c3c2)cc1
Y
